I'd be grateful if you could share measured Kd for these entries.
- Measurement target: CNOT7 (Homo sapiens, UniProt Q9UIV1)
- Construct: biotin (biotinylated); purchased Ichor Life Sciences
- Sequence (Q9UIV1 whole entry): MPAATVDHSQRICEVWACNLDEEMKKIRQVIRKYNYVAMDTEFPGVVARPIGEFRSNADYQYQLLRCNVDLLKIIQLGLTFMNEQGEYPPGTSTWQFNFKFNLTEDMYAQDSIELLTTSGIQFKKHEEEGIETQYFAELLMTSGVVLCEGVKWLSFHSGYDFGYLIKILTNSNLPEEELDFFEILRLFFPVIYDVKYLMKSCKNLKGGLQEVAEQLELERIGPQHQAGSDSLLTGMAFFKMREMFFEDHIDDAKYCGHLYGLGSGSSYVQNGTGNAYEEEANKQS
- Method: Binding of compounds to CNOT7 by surface plasmon resonance (SPR)
- Condition details: dissociation constant by SPR, Table 7

Kindly note the recorded Kd for COc1ccc(CNC(=O)[C@@H](COCCOCCOCCn2cc(COCCOCCOCCOCCOc3ccc(NC(=O)Nc4nc(CC(=O)N5CCN(C)CC5)cs4)cc3)nn2)Sc2nc(=O)[nH]cc2C)cc1 , which is 1 to 25 µM

Kindly note the recorded Kd for COc1ccc([C@@H](C)NC(=O)[C@H](COCCOCCOCc2cn(CCOc3ccc(NC(=O)Nc4nc(CC(=O)N5CCN(C)CC5)cs4)cc3)nn2)Sc2nc(=O)[nH]cc2Cl)c(F)c1 , which is > 25 µM

Kindly note the recorded Kd for COc1ccc([C@@H](C)NC(=O)[C@@H](COCCOCCOCCN=[N+]=[N-])Sc2nc(=O)[nH]cc2Cl)c(F)c1 , which is 1 to 25 µM

###

I'd be grateful if you could share measured Kd for these entries.
- Measurement target: CNOT7 (Homo sapiens)
- Construct: biotin (biotinylated); purchased Ichor Life Sciences
- Method: Binding of compounds to CNOT7 by surface plasmon resonance (SPR)
- Condition details: dissociation constant by SPR, Table 7

Per the reported CNOT7 (Homo sapiens) data, COCCOCC[C@@H](Sc1nc(=O)[nH]cc1C)C(=O)NCc1ccc(OC)cc1 [Compound I-444] has Kd of 1 to 25 µM

Per the reported CNOT7 (Homo sapiens) data, Cc1c[nH]c(=O)nc1S[C@@H](COCCOCCOCCN=[N+]=[N-])C(=O)NCc1ccc2c(c1)CC(=O)N2 [Compound I-408] has Kd of 1 to 25 µM

Per the reported CNOT7 (Homo sapiens) data, COCC(Sc1nc(=O)[nH]cc1C)C(=O)NC(C)c1ccc2c(c1)CC(=O)N2 (stereo not drawn) [Compound I-331] has Kd of 1 to 25 µM

Per the reported CNOT7 (Homo sapiens) data, COc1ccc([C@@H](C)NC(=O)[C@@H](COCCOCCOCc2cn(CCOc3ccc(NC(=O)Nc4nc(CC(=O)N5CCN(C)CC5)cs4)cc3)nn2)Sc2nc(=O)[nH]cc2Cl)c(F)c1 [Compound I-372] has Kd of 1 to 25 µM

Per the reported CNOT7 (Homo sapiens) data, COc1ccc(CNC(=O)[C@H](COCCOCCOCCn2cc(COCCOCCOc3ccc(NC(=O)Nc4nc(CC(=O)N5CCN(C)CC5)cs4)cc3)nn2)Sc2nc(=O)[nH]cc2C)c(F)c1 [Compound I-474] has Kd of 1 to 25 µM

Per the reported CNOT7 (Homo sapiens) data, COc1ccc2c(c1)CC(COCCOCCOCCOCc1cn(CCOc3ccc(NC(=O)Nc4nc(CC(=O)N5CCN(C)CC5)cs4)cc3)nn1)N(C(=O)CSc1nc(=O)[nH]cc1C)C2 (stereo not drawn) [Compound I-451] has Kd of > 25 µM

Per the reported CNOT7 (Homo sapiens) data, COc1ccc2c(c1)C[C@H](COCCOCCOCCOCCN=[N+]=[N-])N(C(=O)CSc1nc(=O)[nH]cc1C)C2 [Compound I-487] has Kd of > 25 µM

Per the reported CNOT7 (Homo sapiens) data, COc1ccc2c(c1)C[C@H](COCCOCCOCCOCCN=[N+]=[N-])N(C(=O)CSc1nc(=O)[nH]cc1Cl)[C@@H]2C [Compound I-428] has Kd of 1 to 25 µM

Per the reported CNOT7 (Homo sapiens) data, COc1ccc(C(C)NC(=O)C(COCCOCCOCCc2cn(COc3ccc(NC(=O)Nc4nc(CC(=O)N5CCN(C)CC5)cs4)cc3)nn2)Sc2nc(=O)[nH]cc2C)c(F)c1 (stereo not drawn) [Compound I-329] has Kd of 1 to 25 µM

Per the reported CNOT7 (Homo sapiens) data, COc1ccc(CNC(=O)[C@@H](CCOCCOCCOCCN=[N+]=[N-])Sc2nc(=O)[nH]cc2Cl)c(F)c1 [Compound I-401] has Kd of > 25 µM

Per the reported CNOT7 (Homo sapiens) data, [N-]=[N+]=NCCOCCOCCOCC[C@H](Sc1nc(=O)[nH]cc1Cl)C(=O)NCc1ccc2c(c1)CC(=O)N2 [Compound I-410] has Kd of > 25 µM

Per the reported CNOT7 (Homo sapiens) data, COc1ccc(CNC(=O)[C@H](COCCOCCOCCn2cc(COCCOCCOCCOCCOc3ccc(NC(=O)Nc4nc(CC(=O)N5CCN(C)CC5)cs4)cc3)nn2)Sc2nc(=O)[nH]cc2C)cc1 [Compound I-476] has Kd of 1 to 25 µM
